Measured melting point values are reported for all entries that follow.

Cc1cc(C)c2sc(-c3cccc(CCCOCCC(=O)OC(C)(C)C)n3)nc(=O)c2c1	105.3 to 107.3 °C
Cc1cccc(-c2nc(=O)c3ccccc3s2)n1	169.8 to 170.3 °C
O=C(c1ccc2c(=O)nc(-c3ccccn3)sc2c1)N1CCOCC1	217.6 to 218.8 °C
O=c1nc(-c2cccc(-c3cnco3)n2)sc2ccccc12	271.3 to 272.7 °C
COc1cc2sc(-c3ccccn3)nc(=O)c2cc1OC	236.3 to 237.5 °C
O=c1nc(-c2cccc(-c3ccccc3)n2)sc2ccccc12	195.4 to 197 °C
CC(C)(C)OC(=O)NCCCCCCNC(=O)c1cccc(-c2nc(=O)c3ccccc3s2)n1	145.1 to 145.4 °C
Cc1cc(CCC(=O)O)cc(-c2nc(=O)c3ccc(Cl)cc3s2)n1	273.5 °C (dec.)

Next compound, please.
Lookup: Recorded melting point for CN(Cc1ccccc1)c1cc(-c2nc(=O)c3ccccc3s2)ccn1 , please?
Found: 145.9 to 146.6 °C

From: patent US7767665B2
